- system tested: T1, human CD11a (human) (UniProt P20701)
- T1 sequence (looked up): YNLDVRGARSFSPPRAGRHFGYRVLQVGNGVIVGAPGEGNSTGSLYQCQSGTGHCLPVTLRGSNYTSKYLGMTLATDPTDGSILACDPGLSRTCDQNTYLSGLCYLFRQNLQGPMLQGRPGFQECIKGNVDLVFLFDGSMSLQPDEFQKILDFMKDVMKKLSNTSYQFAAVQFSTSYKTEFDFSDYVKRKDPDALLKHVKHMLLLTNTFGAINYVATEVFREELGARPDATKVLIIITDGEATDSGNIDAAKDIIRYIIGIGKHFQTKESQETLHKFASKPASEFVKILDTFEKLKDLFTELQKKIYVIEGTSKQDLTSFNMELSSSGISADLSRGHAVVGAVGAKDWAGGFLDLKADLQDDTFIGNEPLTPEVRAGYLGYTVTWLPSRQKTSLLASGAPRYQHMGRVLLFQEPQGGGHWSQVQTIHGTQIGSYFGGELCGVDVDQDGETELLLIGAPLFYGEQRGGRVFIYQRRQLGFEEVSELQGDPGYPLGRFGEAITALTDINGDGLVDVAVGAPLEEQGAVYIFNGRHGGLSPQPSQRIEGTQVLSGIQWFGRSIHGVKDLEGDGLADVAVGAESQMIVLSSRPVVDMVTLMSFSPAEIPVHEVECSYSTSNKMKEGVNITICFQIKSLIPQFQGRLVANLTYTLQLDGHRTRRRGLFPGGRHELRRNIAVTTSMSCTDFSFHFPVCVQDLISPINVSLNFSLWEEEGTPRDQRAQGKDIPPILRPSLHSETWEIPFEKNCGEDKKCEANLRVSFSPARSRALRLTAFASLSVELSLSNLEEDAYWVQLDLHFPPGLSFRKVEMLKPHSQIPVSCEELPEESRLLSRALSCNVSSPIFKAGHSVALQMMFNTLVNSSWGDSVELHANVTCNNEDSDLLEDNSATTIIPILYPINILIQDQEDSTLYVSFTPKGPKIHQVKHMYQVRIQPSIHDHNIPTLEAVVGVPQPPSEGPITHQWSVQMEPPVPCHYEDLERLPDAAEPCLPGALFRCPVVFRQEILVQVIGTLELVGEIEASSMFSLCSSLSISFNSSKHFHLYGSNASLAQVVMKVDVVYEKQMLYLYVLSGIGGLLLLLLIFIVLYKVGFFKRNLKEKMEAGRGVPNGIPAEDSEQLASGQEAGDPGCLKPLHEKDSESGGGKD
- test method notes: FACScan, Jurkat cells
attribute measured: Var.EC50/HuIgG1 EC50

Reported Var.EC50/HuIgG1 EC50 ( HisH52Ser variant IgG1 (antibody, V domains shown) VH: EVQLVESGGGLVQPGGSLRLSCAASGYSFTGHWMNWVRQAPGKGLEWVGMISPSDSETRYNQKFKDRFTISVDKSKNTLYLQMNSLRAEDTAVYYCARGIYFYGTTYFDYWGQGTLVTVSS VL: DIQMTQSPSSLSASVGDRVTITCRASKTISKYLAWYQQKPGKAPKLLIYSGSTLQSGVPSRFSGSGSGTDFTLTISSLQPEDFATYYCQQHNEYPLTFGQGTKVEIK ) = 5

Reported Var.EC50/HuIgG1 EC50 ( H2C10 variant IgG1 (antibody, V domains shown) VH: EVQLVESGGGLVQPGGSLRLSCAASGYSFTGHWMNWVRQAPGKGLEWVGMIAPAASSTRYNQKFKDRFTISVDKSKNTLYLQMNSLRAEDTAVYYCARGIYFYGTTYFDYWGQGTLVTVSS VL: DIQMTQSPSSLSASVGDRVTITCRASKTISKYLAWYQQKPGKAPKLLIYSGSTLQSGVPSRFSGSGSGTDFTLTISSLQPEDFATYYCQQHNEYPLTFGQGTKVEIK ) = 14.2

The measurements presented in this section are drawn from patent EP1516629B1.
